Data credit: patent US20240101635A1

biological target: T1, biotinylated recombinant human Fc(gamma) receptor I (human, UniProt P12314 16-288, biotinylated (site not stated)); experiment: ELISA, fusion protein coated, biotinylated rhFc(gamma)RI at 3000 ng/mL, pH 7.4
T1 construct: Bought reagent, used as surrogate for canine/feline Fc(gamma)RI; also called rhFc(gamma) receptor I; Fc(gamma)RI
T1 sequence (P12314 16-288 limits assumed): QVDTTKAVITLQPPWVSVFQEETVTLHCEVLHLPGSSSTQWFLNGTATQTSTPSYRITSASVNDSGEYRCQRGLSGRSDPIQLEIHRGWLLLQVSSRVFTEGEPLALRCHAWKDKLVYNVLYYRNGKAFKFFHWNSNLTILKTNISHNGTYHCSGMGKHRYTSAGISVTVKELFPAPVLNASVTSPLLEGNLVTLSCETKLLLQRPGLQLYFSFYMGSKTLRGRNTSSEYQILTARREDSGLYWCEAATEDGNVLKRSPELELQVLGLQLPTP
Endpoint Label: OD450 nm at a Fc(gamma)RI concentration of 3000 (ng/mL) (OD450)
Answer format: numeric, OD450 implied, no suffix.

Inquiry: Suppose we examine the binder insulin-Fc fusion protein of SEQ ID NO: 102 (Fc fusion, 73% homodimer; also called cNg-NB151-S, NB119-A) FVNQHLCGSHLVEALELVCGERGFHYGGGGGGSGGGGGIVEQCCTSTCSLDQLENYCGGGGGQGGGGQGGGGQGGGGGDCPKCPAPEMLGGPSVFIFPPKPKDTLLIARTPEVTCVVVALDPEDPEVQISWFVDGKQMQTAKTQPREEQFSGTYRVVSVLPIGHQDWLKGKQFTCKVNNKALPSPIERTISKARGQAHQPSVYVLPPSREELSKNTVSLTCLIKDFFPPDIDVEWQSNGQQEPESKYRTTPPQLDEDGSYFLYSKLSVDKSRWQRGDTFICAVMHEALHNHYTQESLSHSPG ; what OD450 nm at a Fc(gamma)RI concentration of 3000 (ng/mL) value has been reported?
Reply text: 0.166

Inquiry: Suppose we examine the binder insulin-Fc fusion protein of SEQ ID NO: 96 (Fc fusion, purified on Protein A or Protein G) FVNQHLCGSHLVEALELVCGERGFHYGGGGGGSGGGGGIVEQCCTSTCSLDQLENYCGGGGGQGGGGQGGGGQGGGGGRCTDTPPCPVPEPLGGPSVLIFPPKPKDILRITRTPEVTCVVLDLGREDPEVQISWFVDGKEVHTAKTQSREQQFNGTYRVVSVLPIEHQDWLTGKEFKCRVNHIDLPSPIERTISKARGRAHKPSVYVLPPSPKELSSSDTVSITCLIKDFYPPDIDVEWQSNGQQEPERKHRMTPPQLDEDGSYFLYSKLSVDKSRWQQGDPFTCAVMHETLQNHYTDLSLSHSPG ; what OD450 nm at a Fc(gamma)RI concentration of 3000 (ng/mL) value has been reported?
Reply text: 0.253

Inquiry: Suppose we examine the binder insulin-Fc fusion protein of SEQ ID NO: 104 (Fc fusion, 71% homodimer; also called cNg-NB151-S) FVNQHLCGSHLVEALELVCGERGFHYGGGGGGSGGGGGIVEQCCTSTCSLDQLENYCGGGGGQGGGGQGGGGQGGGGGDCPKCPAPEMLGGPSVFIFPPKPKDTLLIARTPEVTCVVVDLDPEDPEVQISWFVDGKQMQTAKTQPREEQFSGTYRVVSVLPIGHQDWLKGKQFTCKVNNKALPSPIERTISKARGQAHQPSVYVLPPSREELSKNTVSLTCLIKDFFPPDIDVEWQSNGQQEPESKYRTTPPQLDEDGSYFLYSKLSVDKSRWQRGDTFICAVMHEALHNHYTQESLSHSPG ; what OD450 nm at a Fc(gamma)RI concentration of 3000 (ng/mL) value has been reported?
Reply text: 0.175

Inquiry: Suppose we examine the binder insulin-Fc fusion protein of SEQ ID NO: 36 (Fc fusion, homodimer; also called cNg-S and B16A) FVNQHLCGSHLVEALALVCGERGFHYGGGGGGSGGGGGIVEQCCTSTCSLDQLENYCGGGGGQGGGGQGGGGQGGGGGDCPKCPAPEMLGGPSVFIFPPKPKDTLLIARTPEVTCVVVDLDPEDPEVQISWFVDGKQMQTAKTQPREEQFSGTYRVVSVLPIGHQDWLKGKQFTCKVNNKALPSPIERTISKARGQAHQPSVYVLPPSREELSKNTVSLTCLIKDFFPPDIDVEWQSNGQQEPESKYRTTPPQLDEDGSYFLYSKLSVDKSRWQRGDTFICAVMHEALHNHYTQESLSHSPG ; what OD450 nm at a Fc(gamma)RI concentration of 3000 (ng/mL) value has been reported?
Reply text: 0.177

Inquiry: Suppose we examine the binder insulin-Fc fusion protein of SEQ ID NO: 52 (Fc fusion, Homodimer; HEK293, Protein A) FVNQHLCGSDLVEALALVCGERGFFYTDPTGGGPRRGIVEQCCHSICSLYQLENYCNGGGGAGGGGDCPKCPAPEMLGGPSVFIFPPKPKDTLLIARTPEVTCVVVDLDPEDPEVQISWFVDGKQMQTAKTQPREEQFNGTYRVVSVLPIGHQDWLKGKQFTCKVNNKALPSPIERTISKARGQAHQPSVYVLPPSREELSKNTVSLTCLIKDFFPPDIDVEWQSNGQQEPESKYRTTPPQLDEDGSYFLYSKLSVDKSRWQRGDTFICAVMHEALHNHYTQESLSHSPG ; what OD450 nm at a Fc(gamma)RI concentration of 3000 (ng/mL) value has been reported?
Reply text: 0.428
